tested on: SF-268 CNS; assay: NCI tumour cell line growth inhibition, 48 h; in the data active means GI50 below about 0.43 µM; inactive means the rest
I would appreciate it if you answered using one of these outcomes: active, inactive

Incoming: Given S=C(Nc1ccc(Cl)cc1)Nc1ccc(-c2nc3ccccc3s2)cc1 , state the outcome it received in this test.
Outgoing: inactive

Incoming: Tell me the assay call for COc1ccc(/C=C\[N+](=O)[O-])cc1OC please.
Outgoing: inactive

Incoming: Outcome? COc1cc(-c2oc(=O)ccc2C#Cc2ccccn2)cc(OC)c1OC
Outgoing: inactive

Incoming: Fill in: this test's call for COc1cc(C(=O)N2CCN(C=O)C2=S)cc(OC)c1OC is ___
Outgoing: inactive

Incoming: Could you please tell me the result logged for CCCCC#CC1=C(Br)C(=O)OC1 in this assay?
Outgoing: inactive

Incoming: For O=C(O)COc1ccc2c(=O)c3sc4c(=O)c5ccccc5c(=O)c4c3c(=O)c2c1 , what call appears in the results of this test?
Outgoing: inactive

Incoming: State the result this test recorded for Cc1ccc(SC2c3ccc(C)cc3Oc3nc(N)c(C#N)c(N)c32)cc1 (configuration not stated) .
Outgoing: inactive

Incoming: # outcome recorded in this test, key = Cc1cc(C)c2c(n1)sc1c(Nc3ccc(Cl)cc3)ncnc12
Outgoing: active

Incoming: Hi, sorry to bother you, what did the test record for CC(=O)OC1COC(Oc2c(C)c3c4c(c2O)[C@@H](C)CC[C@@H]4[C@@H](C)C[C@H]3C=C(C)C)C(O)C1OC(C)=O (some centres not stated) ?
Outgoing: inactive

Incoming: Fill in: this test's call for COc1cccc2c1C(=O)c1c(O)c3c(c(O)c1C2=O)C[C@@](O)(C(=O)CO)C[C@@H]3OC1CC(N)CC(C)O1 (some centres not stated) is ___
Outgoing: active

Incoming: Per the records of this test, what outcome belongs to COc1ccccc1/C=N\N/C(N)=N\N=C\c1ccccc1OC ?
Outgoing: inactive

Incoming: Hello, I am checking results. What call was entered for O=C(Nc1ccc(Br)cc1F)c1cc(F)ccc1O ?
Outgoing: inactive

Incoming: Assay result, entry CNCc1ccccc1-c1csc([C@@H](C)Nc2nc(C)nc3cc(OC)c(OC)cc23)c1 — outcome?
Outgoing: inactive

Incoming: Fill in: this test's call for O=C(Nc1ccc(Nc2ccncc2)cc1)c1ccc([N+](=O)[O-])cc1 is ___
Outgoing: inactive

Incoming: Recorded call for N#Cc1c(NC(=O)NCc2ccccc2)sc2c1CCCCC2 ?
Outgoing: inactive

Incoming: Could you please tell me the result logged for COc1cccc(CC(C)=C(c2ccc(OCCN(C)C)cc2)c2ccc(OCCN(C)C)cc2)c1 in this assay?
Outgoing: inactive

Incoming: Check the results log: what was the call for NC(N)=N/N=C/c1c(-c2ccsc2)nc2sccn12 ?
Outgoing: inactive

====

system: HT29 colon; assay: NCI tumour cell line growth inhibition, 48 h
Assignment: determine reported TGI for the given molecules.

Incoming: Checklist item: TGI tested on HT29 colon, entry BrC1=C(Br)C2(SCCS2)[C@H]2C[C@@H]1c1ccccc12 , value?
Outgoing: > 100 µM

Incoming: Param readout= TGI; system= HT29 colon; entry= Cc1n(Cc2ccccc2)c2c([n+]1C)C(=O)c1ccccc1C2=O ; returns value.
Outgoing: 0.353 µM

Incoming: State its TGI on HT29 colon: CCOC(=O)NC(Nc1ccc(C)cc1)(C(F)(F)F)C(F)(F)F
Outgoing: > 100 µM

Incoming: What measured TGI is associated with CO[C@@]12C[C@@H](C)C3=CCC(C)=C3CC1=C(C)C(=O)O2 on HT29 colon?
Outgoing: > 100 µM

Incoming: Record N.N.N.N.O=C([O-])CCl.O=C([O-])CCl.[Co+3].[O-][Cl+3]([O-])([O-])[O-] : what is its TGI with HT29 colon?
Outgoing: > 100 µM

Incoming: Which measured TGI belongs to CCCCOC(=O)CNC(=O)OC/C=C/C#CC#C/C=C/COC(=O)NCC(=O)OCCCC , tested on HT29 colon?
Outgoing: > 100 µM

Incoming: Which TGI is reported with HT29 colon for this entry: O=c1[nH]nnc2c1sc1ncccc12 ?
Outgoing: > 100 µM

Incoming: Record lookup: for HT29 colon, what TGI belongs to Cn1cc(C2=C(c3ccc(N)cc3)C(=O)NC2=O)c2ccccc21 ?
Outgoing: > 25 µM

Incoming: Give recorded TGI with HT29 colon for the following molecule: Cc1ccc(SC2c3ccc(C)cc3Oc3nc(N)c(C#N)c(N)c32)cc1 (stereo not drawn)
Outgoing: 3.9 µM

Incoming: Give the reported TGI for COc1ccc(C2SC(N)=Nc3c2c(C)nn3C(=O)c2ccncc2)cc1OC (stereo not drawn) (system: HT29 colon).
Outgoing: > 10 µM

Incoming: Checklist item: TGI tested on HT29 colon, entry Cn1c(=O)c2c(ncn2CCNC(CO)C(O)c2ccc([N+](=O)[O-])cc2)n(C)c1=O (stereo not drawn) , value?
Outgoing: > 100 µM

Incoming: Entry c1ccc2cc(-c3cc4ccccc4s3)ccc2c1 , system HT29 colon: what TGI was measured?
Outgoing: > 100 µM

Incoming: Form field: TGI recorded for N#Cc1c(NC(=O)NCc2ccccc2)sc2c1CCCCC2 with HT29 colon (enter value)
Outgoing: > 100 µM

Incoming: Could you share what TGI was measured for COc1ccc2occ(CCC(=O)O)c2c1 , tested on HT29 colon?
Outgoing: > 100 µM

Incoming: Fill in the recorded TGI for this molecule, with HT29 colon as test system: COc1cc(Nc2ncccc2C(=O)NCc2cn(Cc3cccc(Oc4ccccc4)c3)nn2)cc(OC)c1
Outgoing: > 100 µM

Incoming: Param readout= TGI; system= HT29 colon; entry= Cc1ccc(-n2cnc(C(=N)C#N)c2N)cc1 ; returns value.
Outgoing: > 100 µM

Incoming: Recall the recorded TGI for CCOC(=O)C(C#N)C1=CC(=O)C(=O)c2ccc(OC)cc21 (stereo not drawn) with HT29 colon and state it.
Outgoing: 94.2 µM

Incoming: Observed TGI on HT29 colon for N#C[C@H](c1ccccn1)c1nc2ccccc2nc1Cl , please.
Outgoing: > 100 µM

Incoming: So what TGI did O=C(O)C(O)C(O)C(O)C(O)c1nc2ccccc2s1 (stereo not drawn) get with HT29 colon?
Outgoing: 41.9 µM

Incoming: Notebook: pull reported TGI for HT29 colon, entry C=C1C(=O)OC2CC(C)C(C(CC(C)=O)OC(C)=O)=CCC12 (stereo not drawn)
Outgoing: 22 µM

Incoming: Provide value of TGI for this record tested with HT29 colon: CSc1nc(=O)n(CCC#N)nc1SC
Outgoing: > 100 µM

Incoming: GET /values?readout=TGI&system=HT29 colon&item= N#CC1C(=S)NC(c2ccccc2)=CC12CCCCC2 (stereo not drawn)
Outgoing: > 100 µM

Incoming: Can you look up TGI on HT29 colon for [N-]=[N+]=Nc1c([N+](=O)[O-])c(=O)n(-c2ccccc2)c2ccccc12 ?
Outgoing: > 100 µM

Provenance of the data: PubChem BioAssay (NCI)
